- measurement.description: AP1 Signaling Pathway (AID 357);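 note: ME-180 reporter cells stimulated with EGF at its EC50 level; % is set by controls: 0 for no effect and ±100 for the full control effect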
- condition: ME-180 AP-1-bla reporter, EGF-induced, beta-lactamase ratio, 5 h; at 7.69 µM (top of the series) unless noted
Inconclusive results are not listed. Activity calls are given as the source filed them. Calls come from the whole dose curve; as a rule, active = well fitted curve in either direction with a large enough effect (not every such curve was filed as active); inconclusive = small, poorly fitted or top-dose-only effect, or another doubt; inactive = flat fitted curve, though single readings scatter.
readout.kind: activity change, negative = inhibition

Worked examples follow.
[[record]]
chemical_structure = "c1ccc(CSCCc2ccncc2)cc1"
reported_value = "-1.16% (inactive)"

[[record]]
chemical_structure = "Cn1c(=O)c2[nH]c(SCCN3CCOCC3)nc2n(C)c1=S"
reported_value = "0.183% (inactive)"

[[record]]
chemical_structure = "CCNc1ncc2nc(CCc3ccccc3)c(=O)n(C)c2n1"
reported_value = "-11.6% (inactive)"

[[record]]
chemical_structure = "CCOC(=O)c1cnc(N(C)C)nc1SC(=N)N"
reported_value = "-8.3% (inactive)"

[[record]]
chemical_structure = "O=S(=O)(O)c1ccc2c(N=Nc3cccc4ccccc34)c(O)c(S(=O)(=O)O)cc2c1"
reported_value = "-5.27% (inactive)"


The molecule `O=C(O)c1ccc(NCc2nc3cc4ccccc4cc3[nH]2)cc1` showed activity change, negative = inhibition equal to -5.67% (inactive)

---

For each record, write down the corresponding max response.
- measurement.description: qHTS assay for small molecule agonists of retinoid X receptor alpha signaling (AID 588544)
- condition: HEK293T RXRa-UAS-bla, beta-lactamase reporter, 18 h; 530 nm emission
Inconclusive results are not listed.
One number for each entry, in %.

Previously resolved entries follow.
[[record]]
molecule = "Cc1ccccc1OCC1CO1 (configuration not stated)"
reported_value = 14.4

[[record]]
molecule = "OC1CCCCC1"
reported_value = -4.1

[[record]]
molecule = "Cc1ccc(O)c(N)c1"
reported_value = 23.6

[[record]]
molecule = "Oc1cc2c(cc1O)[C@H]1c3ccc(O)c(O)c3OC[C@@]1(O)C2"
reported_value = 5.74

[[record]]
molecule = "C=CC(C)(O)CCCC(C)CCCC(C)CCCC(C)C (configuration not stated)"
reported_value = -17.1


Hey, quick one: what's max response for each of these?
1. O=[N+]([O-])c1ccc(F)cc1F
2. CC(/C=C/C=C(C)/C=C/C(=O)O)=C\C=C\C=C(C)\C=C\C=C(C)\C=C\C(=O)O
3. Brc1ccc(-c2ccccc2)cc1

(A)
0.464
4.44
4.33

---

- measurement.description: Stat Signaling Pathway (AID 446);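 note: ME-180 cervical cancer cells given 40 pM IL-6 alongside compound; SIE-controlled beta-lactamase reporter measured as 460/530 nm FRET emission ratio; % is set by controls: 0 for no effect and ±100 for the full control effect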
- condition: ME-180 (cervical carcinoma) SIE beta-lactamase reporter, IL-6 stimulated, 5 h; at 7.69 µM (top of the series) unless noted
Records with an inconclusive call do not appear. Activity calls are given as the source filed them. Calls follow the shape of the dose curve; as a rule, active = well fitted curve in either direction with a large enough effect (not every such curve was filed as active); inconclusive = small, poorly fitted or top-dose-only effect, or another doubt; inactive = flat fitted curve, though single readings scatter.
readout.kind: activity, negative = inhibition

[[record]]
chemical_structure = "Cc1cc(=O)oc2cc(O)c(CN(C)CC(=O)O)cc12"
readout_kind = "activity, negative = inhibition"
reported_value = "-5.54% (inactive)"

[[record]]
chemical_structure = "COc1ccc(N(CC(=O)O)N=O)cc1"
readout_kind = "activity, negative = inhibition"
reported_value = "2.83% (inactive)"

[[record]]
chemical_structure = "CN(C)CCN1C(=O)CC[C@]2(C)C1=CC[C@@H]1[C@@H]2CC[C@]2(C)[C@H]1CC[C@]2(C)O"
readout_kind = "activity, negative = inhibition"
reported_value = "6.79% (inactive)"


Answer for every listed entry: what is its activity, negative = inhibition? The entries follow.
1. Cc1cc(Cl)ccc1OCC(=O)Oc1c(Cl)c(Cl)c(Cl)c(Cl)c1Cl
2. Oc1ccc([C@@H]2CNCc3sccc32)cc1O
3. NCCOC[C@H](N)C(=O)O
4. C#C[C@H](N)CCC(=O)O

(A)
1. -0.45% (inactive)
2. 5.59% [at 38 µM] (inactive)
3. -1.46% (inactive)
4. 1.65% [at 38 µM] (inactive)
